Reference for the values: patent US20100016392A1

assay: Amount of pesticide incorporated into Sokalan PA-15/Arquad 18/50 aggregate; type: physicochemical; settings: pesticide incorporated into aggregate with 1 equivalent Sokalan PA-15 and 2 equivalents Arquad 18/50
observation-type: Percent a.i.

{"molecule": "O=C(O)c1nc(Cl)ccc1Cl [Clopyralid (Lontrel)]", "val": 3.46}
{"molecule": "CC1(C(=O)Nc2ccc(O)c(Cl)c2Cl)CCCCC1 [Fenhexamid]", "val": 4.47}
{"molecule": "COc1c(Cl)ccc(Cl)c1C(=O)O [Dicamba, 3,6-dichloro-2-methoxybenzoic acid]", "val": 3.77}
{"molecule": "O=C(NC(=O)c1c(F)cccc1F)Nc1cc(Cl)c(OC(F)(F)C(F)C(F)(F)F)cc1Cl (centres unmarked) [Lufenuron]", "val": 8.16}
{"molecule": "CS(=O)(=O)NC(=O)c1cc(Oc2ccc(C(F)(F)F)cc2Cl)ccc1[N+](=O)[O-] [Fomesafen]", "val": 7.17}
{"molecule": "CCc1cnc(C2=NC(C)(C(C)C)C(=O)N2)c(C(=O)O)c1 (racemic) [Imazethapyr]", "val": 5.57}
{"molecule": "C=C1C[C@]23C[C@@]1(O)CC[C@H]2[C@@]12C=C[C@H](O)[C@@](C)(C(=O)O1)[C@H]2[C@@H]3C(=O)O [Gibberellic acid]", "val": 6.28}
{"molecule": "O=C(O)COc1ccc(Cl)cc1Cl [2,4-D, (2,4-dichlorophenoxy)acetic acid]", "val": 2.45}
{"molecule": "O=C(O)CNCP(=O)(O)O [Glyphosate, N-(phosphonomethyl)glycine]", "val": 4.70}
{"molecule": "COc1cc(OC)nc(NC(=O)NS(=O)(=O)c2ncccc2C(=O)N(C)C)n1 [Nicosulfuron]", "val": 6.96}
{"molecule": "CCOc1nc(F)cc2nc(S(=O)(=O)Nc3c(Cl)cccc3C(=O)OC)nn12 [Cloransulam-methyl]", "val": 5.11}
{"molecule": "CS(=O)(=O)c1ccc(C(=O)C2C(=O)CCCC2=O)c([N+](=O)[O-])c1 [Mesotrione]", "val": 6.21}
{"molecule": "C[C@@H](Oc1ccc(Oc2cnc3cc(Cl)ccc3n2)cc1)C(=O)O [Quizalofop-P]", "val": 4.76}
{"molecule": "N#Cc1cc(Br)c(O)c(Br)c1 [Bromoxynil, 3,5-dibromo-4-hydroxybenzonitrile]", "val": 4.34}
